protocolText: M. tuberculosis growth inhibition, HTS (AID 449762);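 note: bacterial growth assessed after seven days of incubation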
measurementParameters: M. tuberculosis H37Rv growth inhibition, 7H9 media; at 25 µM; stronger effect = higher value
Out of some 330,000 compounds screened, about 1,900 (0.58%) were called active. Roughly 4% stayed inconclusive and do not appear here. These entries were drawn from the full list. Potency and affinity values are given separately.
assayEndpoint: inhibition

{"compound": "Cc1ccc(N(C(=O)Cn2nnc(-c3ccc(F)cc3)n2)C(C(=O)NC(C)(C)C)c2ccncc2)cc1 (centres undefined)", "reported": "7.5% (inactive)"}
{"compound": "Cn1c(NN=O)nc2ccccc21", "reported": "0.37% (inactive)"}
{"compound": "CCc1ccc(N2CC(C(=O)OCC(=O)Nc3ccc(C(C)=O)cc3)CC2=O)cc1 (centres undefined)", "reported": "-5.19% (inactive)"}
{"compound": "O=C(Nc1ccc(-c2ccccc2)cc1)c1ccccc1", "reported": "9.06% (inactive)"}
{"compound": "Cc1ccc(C(=O)O/N=C\\c2ccc(N3CCOCC3)c([N+](=O)[O-])c2)cc1", "reported": "0.26% (inactive)"}
{"compound": "Cc1ccc(C)c(N2CCN(C(=O)c3ccc(NC4=NC5CS(=O)(=O)CC5S4)cc3)CC2)c1 (centres undefined)", "reported": "-1.31% (inactive)"}
{"compound": "CC(NCC1COc2ccccc2O1)C1COc2ccccc2O1 (centres undefined)", "reported": "-4.91% (inactive)"}
{"compound": "O=C(NC1CCCCC1)C(c1ccc(F)cc1)N(CCN1CCOCC1)C(=O)c1ccc(-c2ccccc2)[nH]1 (centres undefined)", "reported": "42.3% (inactive)"}
{"compound": "S=C(NCCC(c1ccccc1)c1ccccc1)Nc1ccc(Cl)cc1", "reported": "1.85% (inactive)"}
{"compound": "CC(C)(C)NC(=O)C(=O)NNC(=O)c1ccccc1", "reported": "-5.28% (inactive)"}
{"compound": "COc1ccccc1N1CCN(S(=O)(=O)c2ccc(Br)s2)CC1", "reported": "-5.24% (inactive)"}
{"compound": "COc1ccccc1N1CCN(C(c2cccs2)C(C)NC(=O)C(=O)N2CCCCC2)CC1 (centres undefined)", "reported": "3.15% (inactive)"}
{"compound": "Nc1nc(-c2cc3ccccc3o2)cs1", "reported": "27.5% (inactive)"}
{"compound": "COc1ccc(/C=C2\\Cc3ccccc3C2=O)cc1OC", "reported": "5.99% (inactive)"}
